Where do these numbers come from? They come from patent US7045528B2.

Consider the following compounds; for each one, report its inhibition at 0.05 µM.
# tested on: unphosphorylated VEGF-R2Δ50 (FLVK) (Homo sapiens, UniProt P35968, DEL940-989/E990V)
# Construct: VEGF-R2Δ50 contains residues 806–939 and 990–1171; made in house; host or cells: baculovirus/insect cell system
# Sequence (P35968 with tags, fused parts or gaps DEL940-989/E990V limits assumed): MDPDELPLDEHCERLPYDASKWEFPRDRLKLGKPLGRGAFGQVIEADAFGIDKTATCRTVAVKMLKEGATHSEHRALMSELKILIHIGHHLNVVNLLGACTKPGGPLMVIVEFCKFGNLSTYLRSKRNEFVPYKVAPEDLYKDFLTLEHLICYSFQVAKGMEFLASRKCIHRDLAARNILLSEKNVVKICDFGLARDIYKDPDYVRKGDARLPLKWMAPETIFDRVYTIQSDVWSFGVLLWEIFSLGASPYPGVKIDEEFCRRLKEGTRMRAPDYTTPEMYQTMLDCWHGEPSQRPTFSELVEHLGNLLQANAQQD
# test description: VEGF-R2 coupled spectrophotometric assay, unphosphorylated VEGF-R2Δ50 (FLVK)
# Type: biochemical
# condition context: 50 nM compound; unphosphorylated VEGF-R2Δ50; read-out: FLVK (% inh @ 50 nM)
Just the number in %, nothing appended.

Test item CO[C@@H]1CCN(C(=O)c2cc3nccc(Oc4ccc5c(C(=O)NC6CC6)c(C)sc5c4)c3s2)C1 ; unphosphorylated VEGF-R2Δ50 (FLVK) (Homo sapiens, UniProt P35968, DEL940-989/E990V); reported inhibition at 0.05 µM was 93

Form: item CNC(=O)c1c(C)[nH]c2cc(Oc3ccnc4cc(C(=O)N5CC[C@@H](O)C5)sc34)ccc12 ; test system unphosphorylated VEGF-R2Δ50 (FLVK) (Homo sapiens, UniProt P35968, DEL940-989/E990V); inhibition at 0.05 µM: 69

Item: CCCNC(=O)c1c(C)n(C)c2cc(Oc3ccnc4cc(C(=O)N5CC[C@@H](O)C5)sc34)ccc12 | System: unphosphorylated VEGF-R2Δ50 (FLVK) (Homo sapiens, UniProt P35968, DEL940-989/E990V) | inhibition at 0.05 µM: 81

Fill in: unphosphorylated VEGF-R2Δ50 (FLVK) (Homo sapiens, UniProt P35968, DEL940-989/E990V) inhibition at 0.05 µM for Cc1c(C(=O)NC2CC2)c2ccc(Oc3ccnc4cc(C(=O)N5CCC[C@H]5CO)sc34)cc2n1C = 89

inhibition at 0.05 µM of Cc1sc2cc(Oc3ccnc4cc(-c5nccn5C)sc34)ccc2c1C(=O)NCC1CC1 , assay on unphosphorylated VEGF-R2Δ50 (FLVK) (Homo sapiens, UniProt P35968, DEL940-989/E990V), is 95

Test item CNC(=O)c1c(C)sc2cc(Oc3ccnc4cc(COCCN5CCCC5)sc34)ccc12 ; unphosphorylated VEGF-R2Δ50 (FLVK) (Homo sapiens, UniProt P35968, DEL940-989/E990V); reported inhibition at 0.05 µM was 16

Bench note, unphosphorylated VEGF-R2Δ50 (FLVK) (Homo sapiens, UniProt P35968, DEL940-989/E990V): CCc1c(C(=O)NC)c2ccc(Oc3ccnc4cc(-c5nccn5C)sc34)cc2n1C , inhibition at 0.05 µM reads 43

unphosphorylated VEGF-R2Δ50 (FLVK) (Homo sapiens, UniProt P35968, DEL940-989/E990V) data for CNC(=O)c1c(C)oc2cc(Oc3ccnc4cc(C(=O)N5CC[C@@H](OC)C5)sc34)ccc12 ; its inhibition at 0.05 µM: 100

The recorded inhibition at 0.05 µM with unphosphorylated VEGF-R2Δ50 (FLVK) (Homo sapiens, UniProt P35968, DEL940-989/E990V) for Cc1oc2cc(Oc3ccnc4ccsc34)ccc2c1C(=O)NCCc1c[nH]c2cc(F)ccc12 was 100

Measured on unphosphorylated VEGF-R2Δ50 (FLVK) (Homo sapiens, UniProt P35968, DEL940-989/E990V), Cc1c(C(=O)Nc2ccccn2)c2ccc(Oc3ccnc4cc(-c5nccs5)sc34)cc2n1C has a documented inhibition at 0.05 µM of 95

Log: unphosphorylated VEGF-R2Δ50 (FLVK) (Homo sapiens, UniProt P35968, DEL940-989/E990V), compound CNC(=O)c1c(C)sc2cc(Oc3ccnc4cc(-c5nccn5C)sc34)ccc12 , inhibition at 0.05 µM = 92

Per the reported unphosphorylated VEGF-R2Δ50 (FLVK) (Homo sapiens, UniProt P35968, DEL940-989/E990V) data, CNC(=O)c1c(C)n(C)c2cc(Oc3ccnc4cc(C(=O)N5C[C@H](OC)[C@H](OC)C5)sc34)ccc12 has inhibition at 0.05 µM of 41

Short answer on unphosphorylated VEGF-R2Δ50 (FLVK) (Homo sapiens, UniProt P35968, DEL940-989/E990V) for CNC(=O)c1cn(C)c2cc(Oc3ccnc4cc(C(=O)N5CC[C@@H](OC)C5)sc34)ccc12 , inhibition at 0.05 µM: 38

Record Cc1c(C(=O)NCC2CC2)c2ccc(Oc3ccnc4cc(-c5nccn5C)sc34)cc2n1C has unphosphorylated VEGF-R2Δ50 (FLVK) (Homo sapiens, UniProt P35968, DEL940-989/E990V) inhibition at 0.05 µM equal to 62

Simply: CCc1oc2cc(Oc3ccnc4cc(C(=O)N5CCC[C@H]5CO)sc34)ccc2c1C(=O)NC , unphosphorylated VEGF-R2Δ50 (FLVK) (Homo sapiens, UniProt P35968, DEL940-989/E990V), inhibition at 0.05 µM = 70

Test item Cc1oc2cc(Oc3ccnc4ccsc34)ccc2c1C(=O)Nc1ccc2[nH]ccc2c1 ; unphosphorylated VEGF-R2Δ50 (FLVK) (Homo sapiens, UniProt P35968, DEL940-989/E990V); reported inhibition at 0.05 µM was 99

---

# test description: Mouse PK assay
# Format: in vivo
# condition context: mouse; po, 50 mg/kg, B6 female mice, plasma
test readout: AUC (ng·h/mL)
Report the figure in ng·h/mL without appending any unit label.

The recorded AUC for entry CNC(=O)c1c(C)oc2cc(Oc3ccnc4cc(C(=O)N5CC[C@@H](OC)C5)sc34)ccc12 equals 12000

Record summary for CNC(=O)c1c(C)n(C)c2cc(Oc3ccnc4cc(C(=O)N5CC[C@@H](O)C5)sc34)ccc12 : reported AUC = 120

AUC recorded for this molecule, CNC(=O)c1c(C)oc2cc(Oc3ccnc4cc(-c5nccn5C)sc34)ccc12 , is 63000

---

# tested on: PDGFRβ (Homo sapiens)
# Construct: expressed in transfected cells; host or cells: porcine aorta endothelial (PAE)-PDGFRβ cells
# Sequence (P09619 33-1106): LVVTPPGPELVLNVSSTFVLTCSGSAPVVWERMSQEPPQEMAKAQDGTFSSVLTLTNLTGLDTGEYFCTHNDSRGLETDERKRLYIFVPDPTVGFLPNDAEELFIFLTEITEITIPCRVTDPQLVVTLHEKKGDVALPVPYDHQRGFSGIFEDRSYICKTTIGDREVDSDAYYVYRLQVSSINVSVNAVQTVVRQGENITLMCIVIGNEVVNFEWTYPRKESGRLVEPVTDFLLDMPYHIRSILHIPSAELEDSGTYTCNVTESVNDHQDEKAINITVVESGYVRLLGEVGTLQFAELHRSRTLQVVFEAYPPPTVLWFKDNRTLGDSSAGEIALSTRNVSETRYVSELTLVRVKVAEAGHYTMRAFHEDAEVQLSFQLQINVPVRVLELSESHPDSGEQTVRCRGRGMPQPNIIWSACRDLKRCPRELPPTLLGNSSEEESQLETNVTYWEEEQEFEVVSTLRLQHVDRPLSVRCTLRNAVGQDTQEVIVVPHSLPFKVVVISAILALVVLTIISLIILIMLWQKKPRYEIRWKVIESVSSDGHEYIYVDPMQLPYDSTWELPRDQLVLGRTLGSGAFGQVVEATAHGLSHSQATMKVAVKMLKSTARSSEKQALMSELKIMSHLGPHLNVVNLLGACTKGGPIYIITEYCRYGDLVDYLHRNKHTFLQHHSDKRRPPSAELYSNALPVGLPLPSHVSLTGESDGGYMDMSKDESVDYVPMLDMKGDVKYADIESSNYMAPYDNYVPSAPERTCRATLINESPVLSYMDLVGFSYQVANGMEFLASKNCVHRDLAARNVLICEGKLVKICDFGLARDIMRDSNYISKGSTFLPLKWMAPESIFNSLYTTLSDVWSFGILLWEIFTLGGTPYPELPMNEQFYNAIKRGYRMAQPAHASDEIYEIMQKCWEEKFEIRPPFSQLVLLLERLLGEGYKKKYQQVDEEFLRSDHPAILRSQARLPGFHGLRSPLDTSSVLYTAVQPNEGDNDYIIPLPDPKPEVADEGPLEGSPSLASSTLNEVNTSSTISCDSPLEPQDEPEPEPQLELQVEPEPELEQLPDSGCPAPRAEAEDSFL
# test description: PAE-PDGFRβ phosphorylation in PAE-PDGFRB cells assay
# Type: cell-based
# condition context: PAE cells overexpressing human PDGFRβ, PDGF-BB stimulated; read-out: PAE PDGFR autophos IC50 (nM) AVG
test readout: IC50 (nM)
Use nM as the unit, but write only the number.

Record CCCCNC(=O)c1c(C)n(C)c2cc(Oc3ccnc4cc(-c5nccs5)sc34)ccc12 . Reported IC50: 18.7

compound CNC(=O)c1c(C)oc2cc(Oc3ccnc4cc(C(=O)N5CCC[C@H]5COC)sc34)ccc12 , IC50 observed: 15.5

Item: CNC(=O)c1c(C)n(C)c2cc(Oc3ccnc4cc(-c5nccs5)sc34)ccc12 | IC50: 22.1

IC50 measured on CNC(=O)c1c(C)n(C)c2cc(Oc3ccnc4cc(C(=O)N5CCC(CN)C5)sc34)ccc12 (centres unmarked) = 26.9

Lab note: Cc1sc2cc(Oc3ccnc4cc(-c5nccn5C)sc34)ccc2c1C(=O)NC1CC1 gave IC50 of 189

---

# tested on: unphosphorylated VEGF-R2Δ50 (FLVK) (Homo sapiens, UniProt P35968, DEL940-989/E990V)
# Construct: VEGF-R2Δ50 contains residues 806–939 and 990–1171; made in house; host or cells: baculovirus/insect cell system
# test description: VEGF-R2 coupled spectrophotometric assay, unphosphorylated VEGF-R2Δ50 (FLVK)
# Assay type: biochemical
# condition context: 50 nM compound; unphosphorylated VEGF-R2Δ50; read-out: FLVK (% inh @ 50 nM)
Would you please tag the item Fulfilled when its inhibition at 0.05 µM is 70% or above, and Not fulfilled when it is below?

Incoming: Please check the record CNC(=O)c1c(C)n(C)c2cc(Oc3ccnc4cc(C(=O)N5CC[C@@H](N(C)C(=O)OC(C)(C)C)C5)sc34)ccc12 and state if its inhibition at 0.05 µM is at or above 70%.
Outgoing: Not fulfilled

Incoming: Textbook exercise: given the entry Cc1oc2cc(Oc3ccnc4ccsc34)ccc2c1C(=O)O , state whether its inhibition at 0.05 µM is greater than or equal to 70%.
Outgoing: Not fulfilled

Incoming: Please check the record Cc1sc2cc(Oc3ccnc4ccsc34)ccc2c1C(=O)NCCN1CCOCC1 and state if its inhibition at 0.05 µM is at or above 70%.
Outgoing: Not fulfilled

Incoming: Quick check, inhibition at 0.05 µM >= 70%? CNC(=O)c1c(C)n(C)c2cc(Oc3ccnc4cc(C(=O)N5C[C@@H](O)[C@@H](O)C5)sc34)ccc12
Outgoing: Not fulfilled

Incoming: API: above_or_equal(metric=inhibition at 0.05 µM, cutoff=70%) for item Cc1sc2cc(Oc3ccnc4cc(-c5nccn5C)sc34)ccc2c1C(=O)NCCCO
Outgoing: Fulfilled

Incoming: Answer whether inhibition at 0.05 µM of CCCNC(=O)c1c(C)n(C)c2cc(Oc3ccnc4cc(-c5nccn5C)sc34)ccc12 is greater than or equal to 70%.
Outgoing: Fulfilled

Incoming: Entry CO[C@@H]1CCN(C(=O)c2cc3nccc(Oc4ccc5c(C(=O)NCCO)c(C)oc5c4)c3s2)C1 : is its inhibition at 0.05 µM no less than 70%?
Outgoing: Fulfilled

Incoming: Please indicate if the recorded inhibition at 0.05 µM for Cc1c(C(=O)NC(C)C)c2ccc(Oc3ccnc4cc(-c5nccs5)sc34)cc2n1C meets or exceeds 70%.
Outgoing: Fulfilled
